test system: SMN2 mRNA; assay: RT-qPCR splicing assay, SMN2 canonical junction (CJ) mRNA; type: cell-based, human; settings: Homo sapiens; Table 5 panel; canonical junction qPCR; compound concentration having 50% response in CJ decrease; read-out: SMN2 IC50 (decrease in CJ mRNA levels)
Each item that follows carries a reported IC50.
quantity: IC50

compound="CN1CCC(n2cnc3cc(-c4cc(F)c5nn(C)cc5c4)ccc3c2=O)CC1 [Compound 209]" quantity=IC50 measured="< 100 nM"
compound="Cn1cc2nc(-c3ccc4c(=O)n(C5CCNC6(CC6)C5)ncc4c3)ccc2n1 (stereo not shown) [Compound 511]" quantity=IC50 measured="< 100 nM"
compound="Cc1cn2cc(-c3ncc4c(=O)n(C5CCNC5)ccc4n3)cc(C#N)c2n1 (stereo not shown) [Compound 1221]" quantity=IC50 measured="100 to 1000 nM"
compound="Cc1cc(-c2cc(F)c3c(=O)n(C4CCNCC4)cnc3c2)cc2cn(C)nc12 [Compound 232]" quantity=IC50 measured="< 100 nM"

---

Each item that follows carries a reported IC50.
system: MYB mRNA; experiment: RT-qPCR splicing assay, MYB canonical junction (CJ) and alternative junction (AJ) mRNA; assay type: cell-based, human; settings: Homo sapiens; decrease in MYB canonical junction (CJ) mRNA, RT-qPCR; read-out: MYB CJ IC50
quantity: IC50

smiles_string=Cc1cn2cc(-c3ccc4c(=O)n(C5CCNCC5)cnc4c3)ncc2n1 measured="0.1 to 1 µM"
smiles_string=Cc1cn2cc(-c3cc(F)c4c(=O)n([C@@H]5CNC[C@H]5F)ccc4c3)cc(F)c2n1 measured="0.1 to 1 µM"
smiles_string=C[C@@H]1C[C@H](n2ccc3nc(-c4cc5cn(C)nc5cc4O)ncc3c2=O)CCN1 measured="1 to 10 µM"
smiles_string=Cc1cn2cc(-c3ccc4c(=O)n([C@@H]5CCNC6(CC6)C5)ccc4n3)cc(F)c2n1 measured="1 to 10 µM"

---

Each item that follows carries a reported IC50.
test system: MYB; test: HiBiT protein abundance assay, MYB HiBiT K562 cell line; assay type: cell-based, human; conditions: HiBiT K562 cell line, 24 hours, top dose 10 μM; read-out: Effect on protein abundance, MYB (IC50 category)
quantity: IC50

compound=Cc1c(O)c(-c2ccc3c(=O)n([C@H]4C[C@@H](C)N[C@@H](C)C4)ccc3n2)cc2cn(C)nc12 quantity=IC50 measured="< 100 nM"
compound="Cc1nc2c(C)cc(-c3ccc4c(=O)n(C5CCNC6(CC6)C5)ncc4c3)cc2o1 (centres unmarked)" quantity=IC50 measured="1000 to 10000 nM"
compound=Cc1cn2cc(-c3cc(N)c4c(=O)n(C5CCNCC5)cnc4c3)cc(C#N)c2n1 quantity=IC50 measured="> 10000 nM"
compound="Cc1cc(-c2cc(F)c3c(=O)n(C4CCNC5(CC5)C4)ccc3c2)cc2cn(C)nc12 (centres unmarked)" quantity=IC50 measured="< 100 nM"
compound=Cc1cn2nc(-c3ccc4c(=O)n(C5CCNCC5)ccc4c3)cc(Cc3nnc[nH]3)c2n1 quantity=IC50 measured="1000 to 10000 nM"
compound=Cc1c(O)c(-c2ncc3c(=O)n([C@H]4CC[C@@H](N(C)C)CC4)ccc3n2)cc2cn(C)nc12 quantity=IC50 measured="100 to 1000 nM"
compound=Cc1c(O)c(-c2ncc3c(=O)n([C@H]4C[C@H](N)C4)ccc3n2)cc2cn(C)nc12 quantity=IC50 measured="100 to 1000 nM"
compound=Cc1cn2cc(-c3ccc4c(=O)n(C5CCNCC5)cnc4c3)cc(C)c2n1 quantity=IC50 measured="100 to 1000 nM"

The reported measurements were obtained from patent US20250332173A1.
